RESULT TYPE: melting point

As a guide, the following entries are already answered.
| SMI | melting point |
| --- | --- |
| COc1ccc(N2CCN(c3ncc(N)cn3)CC2)cc1 | 157 °C |
| COc1cccc(Nc2ccc(Nc3ncnc4cc(-c5ccccc5)sc34)cc2)c1 | 189 to 191 °C |

// recorded melting point for C[C@@H]1CNCc2cc3ccc(C(F)(F)F)cc3n21 : 123 to 125 °C

* * *

Measured melting point, listed per entry.

| COMPOUND | melting point |
| --- | --- |
| CC1C(=O)N(CC(N)=O)C(C)(C)N1C(=O)CN (stereo unspecified) | 118 °C |
| CCCCCCNC(=O)Oc1cccc(NC(=O)CC(C)=O)c1 | 125 °C |
| O=C(Nc1cccc(C(F)(F)F)c1)c1cccc2cc(O)ccc12 | 201 to 202 °C |
| CC(C)(C)c1nc(C(=O)c2ccccc2)nc(C(C)(C)C)c1O | 129 to 131 °C |
| CC(C)C1(C)N=C(c2c(C(=O)O)ccc3ccsc23)NC1=O (stereo unspecified) | 200 to 202 °C |

Item: COC(=O)CCCCC(=O)N(O)c1ccc2ccccc2c1O | melting point: 111 to 113 °C

Please fill in: melting point reported for C=CCN(c1ccccc1CC(=O)O)c1c(Cl)cccc1Cl = 148 °C

melting point reported for this compound CC(C)Nc1c(-c2cc(F)cc(F)c2F)c(Cl)nc2ncnn12 : 151 °C

GET /value?item= COC(=O)C=CC1=C(N)CCC1=O &field=melting point returns 278 to 279 °C

# melting point of CC1OC(=O)N(C(=O)NCCCN2CCC(c3ccc(F)cc3)CC2)C1c1ccc(F)c(F)c1 (stereo unspecified) = 108 to 112 °C

Recorded melting point (compound CC(=O)N(C)c1cc2c(nc(C)n2C)c(O)c1CCC(=O)c1ccccc1 ): 249 to 251 °C

Sure, the documented melting point for Cc1cn(C)c2c1N(C(=O)CCBr)c1ccccc1NC2=O is 194 to 195 °C

get_value(item= NC(=S)NN1CCOCC1 , readout=melting point) returns 168 °C

The recorded melting point for Cc1cc(C)c(Oc2ccc(C=NNC(N)=O)cc2)c(C)c1 is 189 to 190 °C

// melting point lookup, compound = CCOC(=O)c1c(C)[nH]c(CC)c1CC , result: 104 to 106 °C

CCOC(=O)C1=C(COCC2=CC(=O)N=N2)NC(C)=C(C(=O)OC)C1c1ccccc1Cl (stereo unspecified) yielded melting point of 207 °C

Lab note: measured melting point of O=Cc1c[nH]c(-c2cccs2)c1 was 198 to 199 °C

// sample Cc1cc(Cl)cc(C(=O)NC2(C)CS(=O)(=O)C2)c1NC(=O)c1cc(OCC(F)(F)F)nn1-c1ncccc1Cl , its melting point was > 250 °C

So, O=S(=O)(c1ccc(Cl)cc1)N1CCCC1c1ccsc1 (racemic) ? Its melting point was 120 °C

The reported value for COc1ccc(C(O)C(=O)c2ccccc2)cc1F (stereo unspecified) in terms of melting point is 127 to 130 °C

Sample CC1(C)CC(C2CCC(O)CC2)CC(C)(C)N1 (stereo unspecified) ; melting point observed: 145 to 150 °C

* * *

RESULT TYPE: melting point

Form field melting point, entry O=C1Cc2cccc(-c3ccccc3)c2N1 : 167 to 169 °C

Input O=[N+]([O-])c1ccc(OCC(F)(F)F)c(OCC(F)(F)F)c1 . Output melting point: 63 to 65 °C

So, CC(C)(C)CC(=O)NN1C(=O)C(NC(=O)Nc2cccc(N)c2)CC(c2ccccc2)CC1c1ccccc1 (centres undefined) ? Its melting point was 195 to 205 °C

Query Cc1ccc(C(O[Si](C)(C)C(C)(C)C)C(=O)NCCO)cc1 (centres undefined) yields melting point of 69 to 70 °C
